- Target desc: Beta-1 adrenergic receptor (Homo sapiens)
- Sequence (P08588 whole entry): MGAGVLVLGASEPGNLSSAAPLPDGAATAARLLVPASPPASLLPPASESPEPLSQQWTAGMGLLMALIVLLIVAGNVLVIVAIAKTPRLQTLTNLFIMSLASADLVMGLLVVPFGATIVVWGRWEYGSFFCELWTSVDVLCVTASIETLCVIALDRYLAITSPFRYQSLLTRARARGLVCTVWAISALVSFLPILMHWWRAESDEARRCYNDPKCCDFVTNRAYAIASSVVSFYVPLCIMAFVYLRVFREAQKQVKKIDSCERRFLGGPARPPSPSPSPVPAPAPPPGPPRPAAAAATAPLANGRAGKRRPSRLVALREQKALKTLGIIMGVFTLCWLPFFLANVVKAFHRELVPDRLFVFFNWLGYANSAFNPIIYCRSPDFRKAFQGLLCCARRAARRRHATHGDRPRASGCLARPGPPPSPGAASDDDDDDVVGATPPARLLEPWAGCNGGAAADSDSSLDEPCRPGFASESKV
- Test method notes: Binding affinity towards human Beta-1 adrenergic receptor expressed in CHO cells, using 125I]iodocyanopindolol
Measured parameter: IC50 (µM)
// return numeric value only (unit: µM, not printed)

Molecular string	Target desc	Units of measure	IC50
COCCCCN1CCN(c2ccc(S(=O)(=O)Nc3ccc(CCNC[C@H](O)c4cccnc4)cc3)cc2)C1=O	Beta-1 adrenergic receptor (Homo sapiens)	µM	50
CCCCCCCCn1ccn(-c2ccc(S(=O)(=O)Nc3ccc(CCNC[C@H](O)c4cccnc4)cc3)cc2)c1=O	Beta-1 adrenergic receptor (Homo sapiens)	µM	5.5
O=C1N(CCCC(F)(F)F)CCN1c1ccc(S(=O)(=O)Nc2ccc(CCNC[C@H](O)c3cccnc3)cc2)cc1	Beta-1 adrenergic receptor (Homo sapiens)	µM	10

Consider the record given below.
Per the records, this molecule ( O=C(CCN1CCN(c2ccc(S(=O)(=O)Nc3ccc(CCNC[C@H](O)c4cccnc4)cc3)cc2)C1=O)N1CCCC1 ) has IC50 equal to 100

###

- Target desc: Beta-3 adrenergic receptor (Homo sapiens, UniProt P13945)
- Sequence (P13945 whole entry, looked up): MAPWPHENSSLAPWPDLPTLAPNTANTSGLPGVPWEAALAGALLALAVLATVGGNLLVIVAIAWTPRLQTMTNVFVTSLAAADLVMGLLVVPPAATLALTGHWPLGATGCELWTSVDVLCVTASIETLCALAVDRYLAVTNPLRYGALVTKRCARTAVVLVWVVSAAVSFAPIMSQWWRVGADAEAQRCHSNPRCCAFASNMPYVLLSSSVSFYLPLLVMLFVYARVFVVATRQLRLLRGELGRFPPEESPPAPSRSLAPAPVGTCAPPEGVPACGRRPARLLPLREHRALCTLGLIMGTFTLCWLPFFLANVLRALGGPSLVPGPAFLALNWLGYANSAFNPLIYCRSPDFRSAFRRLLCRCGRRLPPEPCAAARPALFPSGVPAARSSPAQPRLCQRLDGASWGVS
- Test method notes: Agonistic activity against beta-3 adrenergic receptor as percent adenylyl cyclase activation relative to maximal stimulation with isoproterenol
- Assay type: functional
Measured Activation values are reported for all entries that follow.
Answer with the value and then the unit.

Per the records, this molecule ( O=C1N(CCCC2CCCCC2)CCN1c1ccc(S(=O)(=O)Nc2ccc(CCNC[C@H](O)c3cccnc3)cc2)cc1 ) has Activation equal to 63%

Per the records, this molecule ( O=c1n(Cc2ccc(F)c(F)c2)ccn1-c1ccc(S(=O)(=O)Nc2ccc(CCNC[C@H](O)c3cccnc3)cc2)cc1 ) has Activation equal to 84%

Per the records, this molecule ( O=c1n(CCCC2CCCC2)ccn1-c1ccc(S(=O)(=O)Nc2ccc(CCNC[C@H](O)c3cccnc3)cc2)cc1 ) has Activation equal to 61%

Per the records, this molecule ( O=C1N(CCC2CCCCC2)CCN1c1ccc(S(=O)(=O)Nc2ccc(CCNC[C@H](O)c3cccnc3)cc2)cc1 ) has Activation equal to 69%

Per the records, this molecule ( O=c1n(CCCC(F)(F)F)ccn1-c1ccc(S(=O)(=O)Nc2ccc(CCNC[C@H](O)c3cccnc3)cc2)cc1 ) has Activation equal to 53%

###

Measured Activation values are reported for all entries that follow.
- Target desc: Beta-3 adrenergic receptor (Homo sapiens, UniProt P13945)
- Test method notes: Agonistic activity towards Beta-3 adrenergic receptor was measured as adenylyl cyclase activation given as % of the maximal stimulation with isoproterenol
- Format: functional
// return numeric value only (unit: %, not printed)

Molecular string	Target desc	Activation [%]
O=C1N(CCCC(F)(F)F)CCN1c1ccc(S(=O)(=O)Nc2ccc(CCNC[C@H](O)c3cccnc3)cc2)cc1	Beta-3 adrenergic receptor (Homo sapiens, UniProt P13945)	64

Per the records, this compound ( O=C(CCN1CCN(c2ccc(S(=O)(=O)Nc3ccc(CCNC[C@H](O)c4cccnc4)cc3)cc2)C1=O)N1CCCC1 ) has Activation equal to 75

Per the records, this compound ( O=C1N(Cc2ccc(F)c(F)c2)CCN1c1ccc(S(=O)(=O)Nc2ccc(CCNC[C@H](O)c3cccnc3)cc2)cc1 ) has Activation equal to 86

Per the records, this compound ( CCCCCCN1CCN(c2ccc(S(=O)(=O)Nc3ccc(CCNC[C@H](O)c4cccnc4)cc3)cc2)C1=O ) has Activation equal to 62

Per the records, this compound ( COCCCCN1CCN(c2ccc(S(=O)(=O)Nc3ccc(CCNC[C@H](O)c4cccnc4)cc3)cc2)C1=O ) has Activation equal to 40

Per the records, this compound ( CCCCN1CCN(c2ccc(S(=O)(=O)Nc3ccc(CCNC[C@H](O)c4cccnc4)cc3)cc2)C1=O ) has Activation equal to 75

###

- Target desc: Beta-2 adrenergic receptor (Homo sapiens, UniProt P07550)
- Sequence (P07550 whole entry): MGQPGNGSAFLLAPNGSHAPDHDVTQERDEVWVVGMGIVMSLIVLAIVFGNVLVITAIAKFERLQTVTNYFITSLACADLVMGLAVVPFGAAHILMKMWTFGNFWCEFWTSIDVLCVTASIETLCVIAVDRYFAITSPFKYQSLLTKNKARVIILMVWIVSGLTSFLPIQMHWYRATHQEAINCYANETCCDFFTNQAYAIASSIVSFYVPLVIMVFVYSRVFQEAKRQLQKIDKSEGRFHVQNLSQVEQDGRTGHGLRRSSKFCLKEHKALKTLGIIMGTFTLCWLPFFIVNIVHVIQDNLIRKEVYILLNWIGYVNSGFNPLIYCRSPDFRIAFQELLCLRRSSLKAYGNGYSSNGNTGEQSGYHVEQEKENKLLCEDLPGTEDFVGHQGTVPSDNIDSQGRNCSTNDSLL
- Test method notes: Binding affinity towards human Beta-2 adrenergic receptor expressed in CHO cells, using [125I]iodocyanopindolol
Measured parameter: IC50 (µM)
// return numeric value only (unit: µM, not printed)

Molecular string	Units of measure	IC50
O=C1N(CCCC2CCCCC2)CCN1c1ccc(S(=O)(=O)Nc2ccc(CCNC[C@H](O)c3cccnc3)cc2)cc1	µM	1
O=C1N(CCCC(F)(F)F)CCN1c1ccc(S(=O)(=O)Nc2ccc(CCNC[C@H](O)c3cccnc3)cc2)cc1	µM	6.5
CCCCCCCCN1CCN(c2ccc(S(=O)(=O)Nc3ccc(CCNC[C@H](O)c4cccnc4)cc3)cc2)C1=O	µM	0.38
O=C1N(CCCc2ccc(Cl)cc2)CCN1c1ccc(S(=O)(=O)Nc2ccc(CCNC[C@H](O)c3cccnc3)cc2)cc1	µM	2
CCCCCCCN1CCN(c2ccc(S(=O)(=O)Nc3ccc(CCNC[C@H](O)c4cccnc4)cc3)cc2)C1=O	µM	1
CCCCCCN1CCN(c2ccc(S(=O)(=O)Nc3ccc(CCNC[C@H](O)c4cccnc4)cc3)cc2)C1=O	µM	2.3
CCCCCCn1ccn(-c2ccc(S(=O)(=O)Nc3ccc(CCNC[C@H](O)c4cccnc4)cc3)cc2)c1=O	µM	12
O=C1N(CCC2CCCC2)CCN1c1ccc(S(=O)(=O)Nc2ccc(CCNC[C@H](O)c3cccnc3)cc2)cc1	µM	5
O=C1N(CCC2CCCCC2)CCN1c1ccc(S(=O)(=O)Nc2ccc(CCNC[C@H](O)c3cccnc3)cc2)cc1	µM	1
CCCCCN1CCN(c2ccc(S(=O)(=O)Nc3ccc(CCNC[C@H](O)c4cccnc4)cc3)cc2)C1=O	µM	5

Per the records, this compound ( O=C1N(CCCc2ccccc2)CCN1c1ccc(S(=O)(=O)Nc2ccc(CCNC[C@H](O)c3cccnc3)cc2)cc1 ) has IC50 equal to 2

Per the records, this compound ( CN1CCN(c2ccc(S(=O)(=O)Nc3ccc(CCNC[C@H](O)c4cccnc4)cc3)cc2)C1=O ) has IC50 equal to 2

Per the records, this compound ( O=c1n(Cc2ccc(F)c(F)c2)ccn1-c1ccc(S(=O)(=O)Nc2ccc(CCNC[C@H](O)c3cccnc3)cc2)cc1 ) has IC50 equal to 13

Per the records, this compound ( O=c1n(CCCC2CCCC2)ccn1-c1ccc(S(=O)(=O)Nc2ccc(CCNC[C@H](O)c3cccnc3)cc2)cc1 ) has IC50 equal to 0.76

Per the records, this compound ( CCCCCCCCn1ccn(-c2ccc(S(=O)(=O)Nc3ccc(CCNC[C@H](O)c4cccnc4)cc3)cc2)c1=O ) has IC50 equal to 0.33

Per the records, this compound ( O=c1n(CCCC(F)(F)F)ccn1-c1ccc(S(=O)(=O)Nc2ccc(CCNC[C@H](O)c3cccnc3)cc2)cc1 ) has IC50 equal to 10

Per the records, this compound ( CCCCC(C)(C)CN1CCN(c2ccc(S(=O)(=O)Nc3ccc(CCNC[C@H](O)c4cccnc4)cc3)cc2)C1=O ) has IC50 equal to 5

Per the records, this compound ( CCCCN1CCN(c2ccc(S(=O)(=O)Nc3ccc(CCNC[C@H](O)c4cccnc4)cc3)cc2)C1=O ) has IC50 equal to 5.3

Per the records, this compound ( O=C(CCN1CCN(c2ccc(S(=O)(=O)Nc3ccc(CCNC[C@H](O)c4cccnc4)cc3)cc2)C1=O)N1CCCC1 ) has IC50 equal to 100

Per the records, this compound ( O=C1N(CCCC(F)(F)C(F)(F)F)CCN1c1ccc(S(=O)(=O)Nc2ccc(CCNC[C@H](O)c3cccnc3)cc2)cc1 ) has IC50 equal to 9

###

- Target desc: Beta-3 adrenergic receptor (Homo sapiens, UniProt P13945)
- Test method notes: Agonistic activity towards Beta-3 adrenergic receptor was measured as adenylyl cyclase activation given as % of the maximal stimulation with isoproterenol
- Format: functional
For each record, check the reported Activation: if it is below 70% write met, else write not met.

# example entries with known answers
Molecular string	Target desc	Group
CN1CCN(c2ccc(S(=O)(=O)Nc3ccc(CCNC[C@H](O)c4cccnc4)cc3)cc2)C1=O	Beta-3 adrenergic receptor (Homo sapiens, UniProt P13945)	met
CCCCC(C)(C)CN1CCN(c2ccc(S(=O)(=O)Nc3ccc(CCNC[C@H](O)c4cccnc4)cc3)cc2)C1=O	Beta-3 adrenergic receptor (Homo sapiens, UniProt P13945)	met
O=C1N(CCCc2ccc(Cl)cc2)CCN1c1ccc(S(=O)(=O)Nc2ccc(CCNC[C@H](O)c3cccnc3)cc2)cc1	Beta-3 adrenergic receptor (Homo sapiens, UniProt P13945)	met
O=C1N(CCCc2ccccc2)CCN1c1ccc(S(=O)(=O)Nc2ccc(CCNC[C@H](O)c3cccnc3)cc2)cc1	Beta-3 adrenergic receptor (Homo sapiens, UniProt P13945)	not met
CCCCCN1CCN(c2ccc(S(=O)(=O)Nc3ccc(CCNC[C@H](O)c4cccnc4)cc3)cc2)C1=O	Beta-3 adrenergic receptor (Homo sapiens, UniProt P13945)	not met

Task item: For this compound, is Activation lower than 70%? O=C1N(CCCC2CCCC2)CCN1c1ccc(S(=O)(=O)Nc2ccc(CCNC[C@H](O)c3cccnc3)cc2)cc1
Reply: met

Task item: For this compound, is Activation lower than 70%? CCCCCCCN1CCN(c2ccc(S(=O)(=O)Nc3ccc(CCNC[C@H](O)c4cccnc4)cc3)cc2)C1=O
Reply: not met
